# Tested on: HIV-1IIIB
# testDetails: Inhibition of HIV-1IIIB infection in MT-4 cells (XTT staining)
# Assay type: cell-based
# conditionDescription: HIV-1IIIB in MT-4 cells
testReadout: Therapeutic Index (TC50/EC50)

{"compound": "Cc1nsc2nc([C@H](Cc3cc(F)cc(F)c3)NC(=O)Cn3nc(C(F)(F)F)c4c3C(F)(F)[C@@H]3C[C@H]43)n(-c3ccc(Cl)c4c(NS(C)(=O)=O)nn(C)c34)c(=O)c12 (atropisomer, axis not shown) [Compound 45]", "Therapeutic Index (TC50/EC50)": ">212.8"}
{"compound": "Cn1nc(NS(C)(=O)=O)c2c(Cl)ccc(-n3c([C@H](Cc4cc(F)cc(F)c4)NC(=O)Cn4nc(C(F)(F)F)c5c4C(F)(F)[C@@H]4C[C@H]54)nc4nc(OCCC(F)(F)F)sc4c3=O)c21 (atropisomer, axis not shown) [Compound 53]", "Therapeutic Index (TC50/EC50)": ">980.4"}
{"compound": "Cn1nc(NS(C)(=O)=O)c2c(Cl)ccc(-n3c([C@H](Cc4cc(F)cc(F)c4)NC(=O)Cn4nc(C(F)(F)F)c5c4C(F)(F)[C@@H]4C[C@H]54)nc4sc(CC(F)(F)F)cc4c3=O)c21 [Compound 43]", "Therapeutic Index (TC50/EC50)": ">31.7"}

Exam item: // Therapeutic Index (TC50/EC50) lookup, key: Cn1nc(NS(C)(=O)=O)c2c(Cl)ccc(-n3c([C@H](Cc4cc(F)cc(F)c4)NC(=O)Cn4nc(C(F)(F)F)c5c4C(F)(F)[C@@H]4C[C@H]54)nc4sc(-c5ccc(F)cc5)cc4c3=O)c21 (atropisomer, axis not shown) [Compound 42]
Marked response: >26.4

----------
# System: HIV-1IIIB
# testDetails: Inhibition of HIV-1IIIB infection in MT-4 cells (XTT staining)
# Assay type: cell-based
# conditionDescription: HIV-1IIIB in MT-4 cells
# Description: The compounds were evaluated for inhibition of HIV-1IIIB infection and cellular toxicity in MT-4 cells. […] Fifty microliters (50 μL) of MT-4 cells at a density of 1.0×10^4 cells/well in 10% complete RPMI-1640 (10% FBS supplemented with 1% L-glutamine and 1% Penicillin/Streptomycin) media were plated in a 96-well flat bottom plate. One-hundred microliters (100 μL) of each compound at 12 concentrations were added in triplicate followed by 50 μL of HIV-1IIIB at a pre-determined titer. […]
Reported Therapeutic Index (TC50/EC50) values for the following molecules.

{"molecule": "CS(=O)(=O)Nc1nn(CC(F)(F)F)c2c(-n3c([C@H](Cc4cc(F)cc(F)c4)NC(=O)Cn4nc(C(F)(F)F)c5c4C(F)(F)[C@@H]4C[C@H]54)nc4ncsc4c3=O)ccc(Cl)c12 (atropisomer, axis not shown) [Compound 31]", "Therapeutic Index (TC50/EC50)": ">384.6"}
{"molecule": "Cn1nc(NS(C)(=O)=O)c2c(Cl)ccc(-n3c([C@H](Cc4cc(F)cc(F)c4)NC(=O)Cn4nc(C(F)(F)F)c5c4C(F)(F)[C@@H]4C[C@H]54)nc4ncsc4c3=O)c21 (atropisomer, axis not shown) [Compound 36]", "Therapeutic Index (TC50/EC50)": ">625.0"}
{"molecule": "Cn1nc(NS(C)(=O)=O)c2c(Cl)ccc(-n3c([C@H](Cc4cc(F)cc(F)c4)NC(=O)Cn4nc(C(F)(F)F)c5c4C(F)(F)[C@@H]4C[C@H]54)nc4c(c3=O)CCCN4)c21 (atropisomer, axis not shown) [Compound 34]", "Therapeutic Index (TC50/EC50)": ">42.6"}
{"molecule": "Cn1nc(NS(C)(=O)=O)c2c(Cl)ccc(-n3c([C@H](Cc4cc(F)cc(F)c4)NC(=O)Cn4nc(C(F)(F)F)c5c4C(F)(F)C4CC54)nc4nc(S(C)(=O)=O)sc4c3=O)c21 (stereo partly drawn) [Compound 29]", "Therapeutic Index (TC50/EC50)": ">2.9"}
{"molecule": "Cn1nc(NS(C)(=O)=O)c2c(Cl)ccc(-n3c([C@H](Cc4cc(F)cc(F)c4)NC(=O)Cn4nc(C(F)(F)F)c5c4C(F)(F)[C@@H]4C[C@H]54)nc4cc(N5CCCC5)sc4c3=O)c21 [Compound 39]", "Therapeutic Index (TC50/EC50)": ">5.4"}

Exam item: // Therapeutic Index (TC50/EC50) lookup, key: CC1(C)CN(c2nc3nc([C@H](Cc4cc(F)cc(F)c4)NC(=O)Cn4nc(C(F)(F)F)c5c4C(F)(F)[C@@H]4C[C@H]54)n(-c4ccc(Cl)c5c(NS(C)(=O)=O)nn(CC(F)(F)F)c45)c(=O)c3s2)CCO1 (racemic) [Compound 52]
Marked response: >653.6

Exam item: // Therapeutic Index (TC50/EC50) lookup, key: CN(CCC(F)(F)F)c1nc2nc([C@H](Cc3cc(F)cc(F)c3)NC(=O)Cn3nc(C(F)(F)F)c4c3C(F)(F)[C@@H]3C[C@H]43)n(-c3ccc(Cl)c4c(NS(C)(=O)=O)nn(C)c34)c(=O)c2s1 [Compound 50]
Marked response: >1136.4

Exam item: // Therapeutic Index (TC50/EC50) lookup, key: CS(=O)(=O)Nc1nn(CC(F)(F)F)c2c(-n3c([C@H](Cc4cc(F)cc(F)c4)NC(=O)Cn4nc(C(F)(F)F)c5c4C(F)(F)[C@@H]4C[C@H]54)nc4ncsc4c3=O)ccc(Cl)c12 [Compound 3]
Marked response: >625.0

Exam item: // Therapeutic Index (TC50/EC50) lookup, key: CS(=O)(=O)Nc1nn(CC(F)(F)F)c2c(-n3c([C@H](Cc4cc(F)cc(F)c4)NC(=O)Cn4nc(C(F)(F)F)c5c4C(F)(F)[C@@H]4C[C@H]54)nc4sccc4c3=O)ccc(Cl)c12 [Compound 1]
Marked response: >312.5
